Where do the numbers come from? From ChEMBL document CHEMBL2146426.

Assay: Half life in human liver microsomes
Format: ADME, Microsome
Labels assigned by half-life range: bottom bin (below 2 h), middle bin (2 h to below 5 h), top bin (5 h or more)

Use the examples below as a reference point.
# Compound, Cat
data = [
    ("O=C1COCCN1c1ccc(C2CC(c3ccc([N+](=O)[O-])o3)=NO2)cc1 (centres undefined)", "top bin"),
    ("O=[N+]([O-])c1ccc(C2=NOC(c3ccc(N4CCOCC4)nc3)C2)o1 (centres undefined)", "middle bin"),
    ("O=C1COCCN1c1ccc(C2CC(c3ccc([N+](=O)[O-])o3)=NO2)cc1F (centres undefined)", "top bin"),
    ("O=[N+]([O-])c1ccc(C2=NOC(c3ccc(N4CCSCC4)cc3)C2)o1 (centres undefined)", "bottom bin"),
    ("CN1CCN(c2ccc(C3CC(c4ccc([N+](=O)[O-])o4)=NO3)cc2F)C(=O)C1 (centres undefined)", "middle bin"),
    ("O=[N+]([O-])c1ccc(C2=NOC(c3ccc(N4CC[S+]([O-])CC4)cc3)C2)o1 (centres undefined)", "middle bin"),
]

For the record O=[N+]([O-])c1ccc(C2=NOC(c3ccc(N4CCCCC4)cc3)C2)o1 (centres undefined) , report the class its half-life corresponds to.
bottom bin

For the record CN1CCN(c2ccc(C3CC(c4ccc([N+](=O)[O-])o4)=NO3)cn2)C(=O)C1 (centres undefined) , report the class its half-life corresponds to.
middle bin

For the record O=C1COCCN1c1ccc(C2CC(c3ccc([N+](=O)[O-])o3)=NO2)cn1 (centres undefined) , report the class its half-life corresponds to.
bottom bin

---

Assay: Drug excretion in rat urine
Format: ADME
Settings: read-out: Drug excretion
As shown below, each of these compounds has a reported dose excreted value.
Please format your answer as a value with the unit trailing.

# Compound, dose excreted
data = [
    ("CC(=O)NC[C@H]1CN(c2ccc(N3CCOCC3)c(F)c2)C(=O)O1 [LINEZOLID]", "73%"),
]

Now for a further compound.
Bench note: what dose excreted did CC1COc2c(N3CCN(C)CC3)c(F)cc3c(=O)c(C(=O)O)cn1c23 (configuration not stated) [OFLOXACIN] show?
46%

---

Experiment: AUC (0 to infinity) in rat at 10 mg/kg, iv
Type: ADME, organism-based
Design: time infinity, dose 10 mg/kg, route intravenous
Conditions: plasma
Measured Endpoint: AUC(0-inf) (ng·h/mL)
Your answer should be a plain number; it is taken to be in ng·h/mL.

Bench note: what AUC(0-inf) did CC1COc2c(N3CCN(C)CC3)c(F)cc3c(=O)c(C(=O)O)cn1c23 (stereo unspecified) show?
6100

---

Assay: Efflux ratio of apparent permeability from basal to apical side to apical to basal side of human Caco2 cells
Settings: Caco-2
Measured Endpoint: efflux ratio
Give your answer as a number; write no unit.

Bench note: what efflux ratio did O=[N+]([O-])c1ccc(C2=NOC(c3ccc(N4CCCCC4)cc3)C2)o1 (stereo unspecified) show?
1.35

---

Assay: Half life in Sprague-Dawley rat at 10 mg/kg, iv
Format: ADME, organism-based
Set-up: dose 10 mg/kg, route intravenous
Conditions: in vivo
As shown below, each of these compounds has a reported half-life value.
Your answer should be a plain number; it is taken to be in h.

# Compound, half-life / h
data = [
    ("O=[N+]([O-])c1ccc(C2=NOC(c3ccc(N4CCOCC4)cc3)C2)o1 (centres undefined)", 2.39),
    ("CN1CCN(c2ccc(C3CC(c4ccc([N+](=O)[O-])o4)=NO3)cc2)C(=O)C1 (centres undefined)", 0.61),
    ("O=[N+]([O-])c1ccc(C2=NOC(c3ccc(N4CCCCC4)cc3)C2)o1 (centres undefined)", 2.79),
]

Bench note: what half-life did O=[N+]([O-])c1ccc(C2=NOC(c3ccc(N4CCOCC4)nc3)C2)o1 (centres undefined) show?
0.72

---

Assay: Cmax in Sprague-Dawley rat at 10 mg/kg, iv
Assay type: ADME, organism-based
Set-up: dose 10 mg/kg, route intravenous
Settings: in vivo
Measured Endpoint: Cmax

# Compound, Cmax
records = [
    ("O=[N+]([O-])c1ccc(C2=NOC(c3ccc(N4CCCCC4)cc3)C2)o1 (centres undefined)", "2.28 µg/mL"),
]

Bench note: what Cmax did O=[N+]([O-])c1ccc(C2=NOC(c3ccc(N4CCOCC4)nc3)C2)o1 (centres undefined) show?
2.73 µg/mL

Bench note: what Cmax did CN1CCN(c2ccc(C3CC(c4ccc([N+](=O)[O-])o4)=NO3)cc2)C(=O)C1 (centres undefined) show?
1.19 µg/mL

Bench note: what Cmax did O=[N+]([O-])c1ccc(C2=NOC(c3ccc(N4CCOCC4)cc3)C2)o1 (centres undefined) show?
0.83 µg/mL

---

Assay: Apparent permeability of the compound from basal to apical side of human Caco2 cells at 50 umol/L after 2 hrs by UPLC/MS analysis
Format: ADME, cell-based
Details: Caco-2
As shown below, each of these molecules has a reported Papp B→A at 2 h, 50 µM value.
Your answer should be a plain number; it is taken to be in ×10⁻⁶ cm/s.

# Molecule, Measured Endpoint, Recorded Number
rows = [
    ("O=C1COCCN1c1ccc(C2CC(c3ccc([N+](=O)[O-])o3)=NO2)cn1 (centres undefined)", "Papp B→A at 2 h, 50 µM", 45.7),
    ("O=[N+]([O-])c1ccc(C2=NOC(c3ccc(N4CCSCC4)cc3)C2)o1 (centres undefined)", "Papp B→A at 2 h, 50 µM", 11.4),
    ("O=[N+]([O-])c1ccc(C2=NOC(c3ccc(N4CCOCC4)nc3)C2)o1 (centres undefined)", "Papp B→A at 2 h, 50 µM", 14.2),
]

Now for a further molecule.
Bench note: what Papp B→A at 2 h, 50 µM did O=[N+]([O-])c1ccc(C2=NOC(c3ccc(N4CC[S+]([O-])CC4)cc3)C2)o1 (centres undefined) show?
27.2

---

Tested on: Staphylococcus aureus
Test: Antibacterial activity against Staphylococcus aureus ATCC 29213 after overnight incubation by microbroth dilution technique
Assay type: functional
Measured Endpoint: MIC (µg/mL)
Your answer should be a plain number; it is taken to be in µg/mL.

Use these answered entries as a reference point.
# Compound, MIC, µg/mL
records = [
    ("O=[N+]([O-])c1ccc(C2=NOC(c3ccc(N4CC[S+]([O-])CC4)cc3)C2)o1 (stereo unspecified)", 6.25),
    ("O=C1COCCN1c1ccc(C2CC(c3ccc([N+](=O)[O-])o3)=NO2)cc1F (stereo unspecified)", 6.25),
    ("O=[N+]([O-])c1ccc(C2=NOC(c3ccc(N4CCOCC4)cc3)C2)o1 (stereo unspecified)", 6.25),
]

Bench note: what MIC did O=[N+]([O-])c1ccc(C2=NOC(c3ccc(N4CCOCC4)c(F)c3)C2)o1 (stereo unspecified) show?
25

Bench note: what MIC did CN1CCN(c2ccc(C3CC(c4ccc([N+](=O)[O-])o4)=NO3)cc2)C(=O)C1 (stereo unspecified) show?
6.25

Bench note: what MIC did O=[N+]([O-])c1ccc(C2=NOC(c3ccc(N4CCOCC4)nc3)C2)o1 (stereo unspecified) show?
12.5

---

Experiment: Apparent permeability of the compound from apical to basal side of human Caco2 cells at 50 umol/L after 2 hrs by UPLC/MS analysis
Format: ADME, cell-based
Conditions: Caco-2
As shown below, each of these compounds has a reported Papp A→B at 2 h, 50 µM value.
Your answer should be a plain number; it is taken to be in ×10⁻⁶ cm/s.

# Compound, Value Units, Recorded Number
data = [
    ("CN1CCN(c2ccc(C3CC(c4ccc([N+](=O)[O-])o4)=NO3)cn2)C(=O)C1 (stereo not given)", "×10⁻⁶ cm/s", 36.6),
    ("CN1CCN(c2ccc(C3CC(c4ccc([N+](=O)[O-])o4)=NO3)cc2F)C(=O)C1 (stereo not given)", "×10⁻⁶ cm/s", 27),
    ("O=[N+]([O-])c1ccc(C2=NOC(c3ccc(N4CCCCC4)cc3)C2)o1 (stereo not given)", "×10⁻⁶ cm/s", 7.61),
    ("O=[N+]([O-])c1ccc(C2=NOC(c3ccc(N4CC[S+]([O-])CC4)cc3)C2)o1 (stereo not given)", "×10⁻⁶ cm/s", 24.2),
    ("O=[N+]([O-])c1ccc(C2=NOC(c3ccc(N4CCSCC4)cc3)C2)o1 (stereo not given)", "×10⁻⁶ cm/s", 9.62),
    ("O=C1COCCN1c1ccc(C2CC(c3ccc([N+](=O)[O-])o3)=NO2)cc1 (stereo not given)", "×10⁻⁶ cm/s", 12.6),
]

Bench note: what Papp A→B at 2 h, 50 µM did O=C1COCCN1c1ccc(C2CC(c3ccc([N+](=O)[O-])o3)=NO2)cn1 (stereo not given) show?
8.61

Bench note: what Papp A→B at 2 h, 50 µM did O=C1COCCN1c1ccc(C2CC(c3ccc([N+](=O)[O-])o3)=NO2)cc1F (stereo not given) show?
15.4

Bench note: what Papp A→B at 2 h, 50 µM did O=[N+]([O-])c1ccc(C2=NOC(c3ccc(N4CCOCC4)cc3)C2)o1 (stereo not given) show?
17.2

Bench note: what Papp A→B at 2 h, 50 µM did O=[N+]([O-])c1ccc(C2=NOC(c3ccc(N4CCOCC4)nc3)C2)o1 (stereo not given) show?
6.47
